- measured.on: 3',5'-cyclic-AMP phosphodiesterase 4B (Homo sapiens)
- Sequence (Q07343 whole entry): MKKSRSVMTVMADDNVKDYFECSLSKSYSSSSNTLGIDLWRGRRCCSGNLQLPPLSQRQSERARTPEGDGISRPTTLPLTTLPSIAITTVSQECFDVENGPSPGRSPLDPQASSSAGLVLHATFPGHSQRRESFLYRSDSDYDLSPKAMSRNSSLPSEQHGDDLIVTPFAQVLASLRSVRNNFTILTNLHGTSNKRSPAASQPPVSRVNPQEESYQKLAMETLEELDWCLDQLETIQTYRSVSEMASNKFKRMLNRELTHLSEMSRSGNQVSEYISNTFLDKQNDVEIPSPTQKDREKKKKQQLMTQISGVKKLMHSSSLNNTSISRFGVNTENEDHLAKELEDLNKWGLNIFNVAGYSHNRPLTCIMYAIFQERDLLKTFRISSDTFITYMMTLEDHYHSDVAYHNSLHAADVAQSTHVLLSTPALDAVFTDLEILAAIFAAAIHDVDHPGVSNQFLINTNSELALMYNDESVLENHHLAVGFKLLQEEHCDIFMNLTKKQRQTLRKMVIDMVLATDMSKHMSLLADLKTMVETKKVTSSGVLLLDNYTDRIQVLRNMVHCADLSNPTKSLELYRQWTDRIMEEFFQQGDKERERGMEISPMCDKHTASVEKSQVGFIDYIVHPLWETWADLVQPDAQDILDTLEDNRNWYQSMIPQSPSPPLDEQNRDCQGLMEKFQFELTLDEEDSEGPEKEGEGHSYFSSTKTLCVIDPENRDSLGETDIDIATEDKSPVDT
- protocol.text: Inhibition of recombinant human PDE4B using cAMP as substrate after 10 mins by PDE-Glo Phosphodiesterase Assay
measured.metric: IC50

COc1nc2c(c(=O)n(C)c(=O)n2C)n1CCCC(=O)Nc1cccc(Cl)c1    > 200 µM
CCOc1nc2c(c(=O)n(C)c(=O)n2C)n1CC(=O)Nc1ccc(C(C)C)cc1    > 200 µM
CCOc1nc2c(c(=O)n(C)c(=O)n2C)n1CC(=O)NCc1ccccc1Cl    > 200 µM
COc1nc2c(c(=O)n(C)c(=O)n2C)n1CCCC(=O)Nc1ccc(C(C)C)cc1    > 200 µM
CCCOc1nc2c(c(=O)n(C)c(=O)n2C)n1CCCC(=O)Nc1ccc(C(C)(C)C)cc1    21.1 µM

Find the measured IC50: item `CCOc1nc2c(c(=O)n(C)c(=O)n2C)n1CCCC(=O)Nc1ccc(C(C)(C)C)cc1` , target or system 3',5'-cyclic-AMP phosphodiesterase 4B (Homo sapiens). 42.5 µM

Find the measured IC50: item `CCOc1nc2c(c(=O)n(C)c(=O)n2C)n1CC(=O)Nc1ccc(C(C)(C)C)cc1` , target or system 3',5'-cyclic-AMP phosphodiesterase 4B (Homo sapiens). > 200 µM

Find the measured IC50: item `COc1nc2c(c(=O)n(C)c(=O)n2C)n1CC(=O)Nc1ccc(C(C)C)cc1` , target or system 3',5'-cyclic-AMP phosphodiesterase 4B (Homo sapiens). > 200 µM

Find the measured IC50: item `CCCOc1nc2c(c(=O)n(C)c(=O)n2C)n1CCCC(=O)Nc1ccc(C(C)C)cc1` , target or system 3',5'-cyclic-AMP phosphodiesterase 4B (Homo sapiens). 17.8 µM

###

- measured.on: Transient receptor potential cation channel subfamily A member 1 (Homo sapiens) (UniProt O75762)
- Sequence (O75762 whole entry): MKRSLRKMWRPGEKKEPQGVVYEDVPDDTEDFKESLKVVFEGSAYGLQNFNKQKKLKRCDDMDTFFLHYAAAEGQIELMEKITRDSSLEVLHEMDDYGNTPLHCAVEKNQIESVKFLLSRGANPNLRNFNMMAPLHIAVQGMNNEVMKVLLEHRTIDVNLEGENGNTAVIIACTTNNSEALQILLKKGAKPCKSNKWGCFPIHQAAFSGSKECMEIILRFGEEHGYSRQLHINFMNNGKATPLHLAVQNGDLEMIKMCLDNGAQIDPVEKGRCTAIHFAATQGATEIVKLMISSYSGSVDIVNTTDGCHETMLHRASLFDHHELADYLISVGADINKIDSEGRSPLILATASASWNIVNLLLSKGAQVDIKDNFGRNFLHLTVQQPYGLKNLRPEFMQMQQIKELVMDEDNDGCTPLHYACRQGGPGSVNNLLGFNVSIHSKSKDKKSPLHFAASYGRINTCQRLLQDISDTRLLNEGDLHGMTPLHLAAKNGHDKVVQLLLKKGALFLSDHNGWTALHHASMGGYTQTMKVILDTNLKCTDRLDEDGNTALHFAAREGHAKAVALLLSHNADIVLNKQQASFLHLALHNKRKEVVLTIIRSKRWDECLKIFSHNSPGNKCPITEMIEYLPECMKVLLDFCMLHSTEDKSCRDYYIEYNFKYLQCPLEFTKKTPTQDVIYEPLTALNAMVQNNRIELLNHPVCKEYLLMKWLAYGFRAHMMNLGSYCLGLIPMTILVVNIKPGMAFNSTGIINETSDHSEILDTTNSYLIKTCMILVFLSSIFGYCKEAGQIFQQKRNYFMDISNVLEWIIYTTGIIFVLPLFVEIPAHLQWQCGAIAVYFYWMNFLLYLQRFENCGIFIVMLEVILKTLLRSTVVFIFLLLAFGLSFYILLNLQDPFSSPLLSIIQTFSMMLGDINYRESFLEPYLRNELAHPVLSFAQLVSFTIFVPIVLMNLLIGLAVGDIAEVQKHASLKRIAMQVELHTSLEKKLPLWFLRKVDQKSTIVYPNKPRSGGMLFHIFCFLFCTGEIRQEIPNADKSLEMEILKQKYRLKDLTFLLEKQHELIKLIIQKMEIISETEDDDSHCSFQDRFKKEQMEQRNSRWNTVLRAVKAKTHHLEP
- protocol.text: Antagonist activity at human TRPA1 expressed in HEK293 cells assessed as decrease in flufenamic acid-evoked increase in intracellular calcium level at 100 uM measured for 180 secs with 1 sec interval by Fluo4-AM dye-based fluorescence assay relative to control
- Type: cell-based
# maps each entry to its inhibition
Quick note: give the figure in %, leave out the unit.

Field: example entries. Status: answers known.
CCOc1nc2c(c(=O)n(C)c(=O)n2C)n1CC(=O)Nc1ccc(C(C)C)cc1    20
COc1nc2c(c(=O)n(C)c(=O)n2C)n1CCCC(=O)Nc1ccc(C(C)(C)C)cc1    13
COc1nc2c(c(=O)n(C)c(=O)n2C)n1CC(=O)NCc1ccccc1Cl    3
CC(C)c1ccc(NC(=O)Cn2cnc3c2c(=O)n(C)c(=O)n3C)cc1    43
CCOc1nc2c(c(=O)n(C)c(=O)n2C)n1CCCC(=O)Nc1ccc(C(C)(C)C)cc1    0

May I ask what inhibition has been recorded for CCCOc1nc2c(c(=O)n(C)c(=O)n2C)n1CCCC(=O)Nc1ccc(C(C)CC)cc1 (stereo not given) ? 5

May I ask what inhibition has been recorded for `COc1nc2c(c(=O)n(C)c(=O)n2C)n1CC(=O)Nc1cccc(Cl)c1` ? 2

###

- System: Rattus norvegicus
- protocol.text: Anti-inflammatory activity in Wistar rat assessed as inhibition of carrageenan-induced paw edema at 20 mg/kg, ip measured at 1 hr post dose relative to control
- Assay type: functional
measured.metric: inhibition in vivo at 20 mg/kg (%)
Quick note: give the figure in %, leave out the unit.

Field: example entries. Status: answers known.
CCOc1nc2c(c(=O)n(C)c(=O)n2C)n1CC(=O)Nc1ccc(C(C)(C)C)cc1    60.5
CC(C(=O)O)c1cccc(C(=O)c2ccccc2)c1 (stereo not given) [KETOPROFEN]    23.3
CC(C)c1ccc(NC(=O)Cn2cnc3c2c(=O)n(C)c(=O)n3C)cc1    4.7
COc1nc2c(c(=O)n(C)c(=O)n2C)n1CC(=O)Nc1ccc(C(C)(C)C)cc1    37.1

May I ask what inhibition in vivo at 20 mg/kg has been recorded for `CCCCOc1nc2c(c(=O)n(C)c(=O)n2C)n1CCCC(=O)Nc1cc(C(C)(C)C)ccc1O` ? 48

Data origin: ChEMBL document CHEMBL4265944
